All figures here come from PubChem BioAssay (NCI).

# System: OVCAR-5 ovarian
# method_notes: NCI tumour cell line growth inhibition, 48 h; in the data active = GI50 below about 0.43 µM; inactive = the rest
Response enum: active, inactive

Prompt: What did the test return for [Co].[O-]c1cccnc1C=Nc1ccccc1.[OH3+] ?
Completion: inactive

Prompt: Now try CC1=C2[C@@H](CC1)[C@]1(C)O[C@@](C(C)C)(C[C@H]1OC(=O)CO)[C@H]2OC(=O)CCCc1ccccc1 .
Completion: inactive

Prompt: Now try COc1cc2c(/C=C3/C(=O)Nc4ccc(O)cc43)c(Cl)n(Cc3cc(OC)c(OC)c(OC)c3)c2cc1C .
Completion: inactive

Prompt: Now try O=[N+]([O-])c1ccc(N=Nc2c(Cl)cc(O)cc2Cl)cc1 .
Completion: inactive

Prompt: Now try CC(C)CCCCCCCCCCCCC(=O)NCC(=O)NC1C(C)OC(Nc2ncnc3nc[nH]c23)C(O)C1O (stereo not drawn) .
Completion: active

Prompt: Now try O=C1c2cc3c(cc2-c2c1c1ccc(F)cc1c(=O)n2C[C@H](O)[C@H](O)[C@H](O)CO)OCO3 .
Completion: active

Prompt: Now try CC1OC(CC(=O)O)Cc2c1c(O)c1c(O)cc(-c3cc(=O)c4c(=O)c5c(c(=O)c=4c3=O)CC(CC(=O)O)OC5C)c(O)c1c2O (stereo not drawn) .
Completion: inactive

Prompt: Now try COC(=O)C1=C(C(=O)ON)[C@@H]2C=C[C@@]1([C@@H](Cc1ccccc1)Nc1ccccc1)O2 .
Completion: inactive

Prompt: Now try O=C(c1ccc2ccccc2c1)c1c(C(F)(F)F)n([O-])c2cc(C(F)(F)F)ccc2[n+]1=O .
Completion: inactive

Prompt: Now try Fc1ccc(-c2ncn(CCCN3CCOCC3)c2-c2ccncc2)cc1 .
Completion: inactive

Prompt: Now try COc1ccc2nc3c(cc2c1)C(=O)CC(c1ccccc1)C3 (stereo not drawn) .
Completion: inactive

Prompt: Now try CCc1cccc(NC(=O)Nc2ccc(Oc3ccc4nc(NC(=O)OC)[nH]c4c3)cc2)c1 .
Completion: inactive

Prompt: Now try C#CCOC(=O)/C=C/C(=O)Oc1ccc2c(C)cc(=O)oc2c1 .
Completion: inactive

Prompt: Now try COc1ccc(-c2cc(-c3ccc(OC)cc3)nc(NCCCNc3ccnc4cc(Cl)ccc34)n2)cc1 .
Completion: inactive

Prompt: Now try Cc1ccc2[nH]c(C(=O)NN3C(=O)C(C)SC34CCC(C)CC4)c(-c3ccccc3)c2c1 (stereo not drawn) .
Completion: inactive

Prompt: Now try CCCCc1n(Cc2ccc3ccccc3n2)cc[n+]1Cc1ccc2ccccc2n1 .
Completion: inactive

Prompt: Now try O=c1oc2ccc(Cl)cc2c(=O)n1-c1ccc(F)cc1F .
Completion: inactive

Prompt: Now try S=C1SCN(Cc2ccccc2)CN1Cc1ccccc1 .
Completion: inactive

* * *

# Test system: EKVX NSCLC
# method_notes: NCI tumour cell line growth inhibition, 48 h
quantity_measured: TGI

Prompt: Query: TGI; subject: CN1c2c(nc(N)[nH]c2=O)NCC1CCNc1ccc(C(=O)NC(CCC(=O)O)C(=O)O)cc1 (centres undefined)
Completion: 2720 µM

Prompt: Now try CC(C)C1=CC2=CC[C@@H]3[C@](C)(CCC[C@@]3(C)C(=O)O)[C@H]2CC1 .
Completion: > 89.3 µM

Prompt: Now try O=C1CCCCN1 .
Completion: > 350 µM

Prompt: Now try CN(C)c1ccc(C2CC(=O)CC(c3ccc(N(C)C)cc3)C23C(=O)NC(=S)NC3=O)cc1 (centres undefined) .
Completion: > 100 µM

Prompt: Now try Cc1c[nH]c(=O)n(Cc2nnc(CCC(=O)c3nc4ccccc4[nH]3)o2)c1=O .
Completion: > 100 µM

Prompt: Now try COc1cccc(C=O)c1[O-].COc1cccc(C=O)c1[O-].[Zn+2] .
Completion: > 100 µM

Prompt: Now try COC(=O)CCC(=O)c1ccc2c(c1)CC1(C2)Cc2ccc(C(=O)CCC(=O)OC)cc2C1 .
Completion: > 100 µM

Prompt: Now try COc1ccc(-c2cc(-c3ccc(OC)cc3)nc(NCCCNc3ccnc4cc(Cl)ccc34)n2)cc1 .
Completion: 4.17 µM

Prompt: Now try COc1ccc(-c2cc(=O)c3cc(C)c(C)c(C(=O)O)c3o2)cc1 .
Completion: > 100 µM
